Reported selectivity ratio values follow for various compounds
test: Therapeutic index, ratio of CC50 for uninfected human HepG2 cells to EC50 for HBV infected in human HepG2 cells; format: toxicity, cell-based
Counter-ions that a name gives are not always drawn.

Before answering, review these 2 worked examples.
INSERT INTO measurements (compound, readout_name, measured) VALUES
  ('CCCCCCCCCCCCSSCCCCCCOP(=O)(O)CO[C@H](C)Cn1cnc2c(N)ncnc21', 'selectivity ratio', '> 47'),
  ('CCCCCCCCCCCCCCCCSSCc1ccccc1COP(=O)(O)CO[C@H](C)Cn1cnc2c(N)ncnc21', 'selectivity ratio', 214);

# evaluate next
Qu. Look at this compound and give its reported selectivity ratio. CC(C)OC(=O)OCOP(=O)(CO[C@H](C)Cn1cnc2c(N)ncnc21)OCOC(=O)OC(C)C [TENOFOVIR DISOPROXIL FUMARATE]
Ans. 190
